# Assay comment: soluble fraction after stress (log2 fold change); higher = more stays soluble; pooled small domains, quantitative proteomics;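 also: 20 min heating vs room temperature control held 20 min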
# Reported conditions: stress: 75 degC
Measured soluble fraction (log2) by item

{"columns": ["Sequence data", "soluble fraction (log2)"],
 "data": [
  ["HMDTSISHLVGRTGEAVTDLRPAGTVMIDGELYDARATEGFIEKGEIVKAIKYQYGQLNVRRVSK", 0.00609],
  ["HMLAVEKIEFVGNERIAAADLESALSALYDRPMTTISDDEIAKLLSGFSLIETFTSQAEPPHTLRVNIRE", 0.083],
  ["HMVSVLDHIVGIGAKRRQSLWNHFGTIDKIKAASIDELLKAPGMNRPSAEAVYYFFEAQRQLRGK", -1.22],
  ["HMKGTVLAPGIILNADDQRFTYLQEDVASVAKDGAAIVLKQGDEVDFIADGQTAKQIYLTKT", 0.289],
  ["HMSTVISPLPGNIIKVLVPEGKSVKRGDTILTIESMKMENSIKAAYDGVVKKIYVQQAQIVMQGDPLFDL", -2.86],
  ["HMQISDSGELEKIVLQVIEENPKPAEQVRSGNEKAIGALVGGVMKATQGRADGGEVNRLLRQHLGL", 0.248],
  ["HMQPFTELTPREREILGHLAEGQSNKVIARHLDISDGTVKLHVKAILRKLGVHSRVEAAVMAVEHGIR", -2.11],
  ["HMSQSMEVLYTDLTDKDAAAIVEKLEEEKIPYQLEDQGTTILVPPGVKYTTRLKLAAEDLPKG", 0.0723]
]}
